Recorded values, source PubChem BioAssay (NCATS).

Test description: BET inhibitor-based combinations targeting novel dependencies in MECOM-rearranged (r) AML: AML-194 cell line (AID 2202237; also: nearly all actives have a fitted effect of over 40% in size)
Assay context: AML-194 (MECOM-r AML) viability, CellTiter-Glo, 48 h; series mostly up to 46 µM
Inconclusive results are not listed. Calls of active or inactive are those of the source. Calls follow the shape of the dose curve; as a rule, active = well fitted inhibition curve with a large enough effect; inconclusive = small, poorly fitted or top-dose-only effect; inactive = flat fitted curve, though single readings scatter.
// allowed return values: class 1 (active), class 0 (inactive)

Prompt: // outcome(item) with item = COc1ccc2c(c1)c(CC(=O)O)c(C)n2C(=O)c1ccc(Cl)cc1
Response: class 0

Prompt: Look up the recorded call for CC1(O)CC(c2nc(-c3ccc4ccc(-c5ccccc5)nc4c3)c3c(N)nccn23)C1 (stereo not drawn) in this test.
Response: class 0

Prompt: Returns: the outcome recorded for O=S(=O)(c1cccc2c(I)cccc12)N1CCCNCC1 in this assay.
Response: class 0

Prompt: // outcome(item) with item = Cc1cccc(-c2[nH]ncc2-c2ccc3ncccc3n2)n1
Response: class 0

Prompt: Record lookup: outcome of this test for CC(C)N(CCCNC(=O)Nc1ccc(C(C)(C)C)cc1)C[C@H]1O[C@@H](n2ccc3c(N)ncnc32)[C@H](O)[C@@H]1O ?
Response: class 0

Prompt: Dear all, I need the recorded test outcome for O=C(O)C1=CC(O)C(O)[C@H](O)C1 (stereo partly drawn) , thank you.
Response: class 0

Prompt: I would be grateful if you could indicate the recorded call for COc1ccccc1C(=O)Nc1cc2c(cc1N1CCCCC1)n(C)c(=O)n2C .
Response: class 0

Prompt: Check the results log: what was the call for CCCCCCCCc1ccc(CCC(N)(CO)CO)cc1 ?
Response: class 1

Prompt: Returns: the outcome recorded for CCCCCCCCCCCCc1ccc(S(=O)(=O)Nc2nncs2)cc1 in this assay.
Response: class 0

Prompt: I'd appreciate the recorded outcome for CC[C@@H](C)Nc1cc(C(=O)NC2CC3CCC(C2)N3c2ccc(C(=O)C3CC3)cn2)c(C)cc1C(N)=O (stereo partly drawn) from this test.
Response: class 1

Prompt: Each compound tested received a call. Report the one for O=C(O)c1cc(=O)c2c(OCC(O)COc3cccc4oc(C(=O)O)cc(=O)c34)cccc2o1 .
Response: class 0

Prompt: Which outcome did this test record for the compound CNNCc1ccc(C(=O)NC(C)C)cc1 ?
Response: class 0

Prompt: Given CNC(=O)c1ccc(-c2cnc3ncc(Cc4ccc5ncccc5c4)n3n2)cc1F , state the outcome it received in this test.
Response: class 0
